study target: ATP-binding cassette transporter A1 (ABCA1) (UniProt P41233 1-2261, limits assumed); note: test concentration or dose not given here
Sequence (P41233 whole entry): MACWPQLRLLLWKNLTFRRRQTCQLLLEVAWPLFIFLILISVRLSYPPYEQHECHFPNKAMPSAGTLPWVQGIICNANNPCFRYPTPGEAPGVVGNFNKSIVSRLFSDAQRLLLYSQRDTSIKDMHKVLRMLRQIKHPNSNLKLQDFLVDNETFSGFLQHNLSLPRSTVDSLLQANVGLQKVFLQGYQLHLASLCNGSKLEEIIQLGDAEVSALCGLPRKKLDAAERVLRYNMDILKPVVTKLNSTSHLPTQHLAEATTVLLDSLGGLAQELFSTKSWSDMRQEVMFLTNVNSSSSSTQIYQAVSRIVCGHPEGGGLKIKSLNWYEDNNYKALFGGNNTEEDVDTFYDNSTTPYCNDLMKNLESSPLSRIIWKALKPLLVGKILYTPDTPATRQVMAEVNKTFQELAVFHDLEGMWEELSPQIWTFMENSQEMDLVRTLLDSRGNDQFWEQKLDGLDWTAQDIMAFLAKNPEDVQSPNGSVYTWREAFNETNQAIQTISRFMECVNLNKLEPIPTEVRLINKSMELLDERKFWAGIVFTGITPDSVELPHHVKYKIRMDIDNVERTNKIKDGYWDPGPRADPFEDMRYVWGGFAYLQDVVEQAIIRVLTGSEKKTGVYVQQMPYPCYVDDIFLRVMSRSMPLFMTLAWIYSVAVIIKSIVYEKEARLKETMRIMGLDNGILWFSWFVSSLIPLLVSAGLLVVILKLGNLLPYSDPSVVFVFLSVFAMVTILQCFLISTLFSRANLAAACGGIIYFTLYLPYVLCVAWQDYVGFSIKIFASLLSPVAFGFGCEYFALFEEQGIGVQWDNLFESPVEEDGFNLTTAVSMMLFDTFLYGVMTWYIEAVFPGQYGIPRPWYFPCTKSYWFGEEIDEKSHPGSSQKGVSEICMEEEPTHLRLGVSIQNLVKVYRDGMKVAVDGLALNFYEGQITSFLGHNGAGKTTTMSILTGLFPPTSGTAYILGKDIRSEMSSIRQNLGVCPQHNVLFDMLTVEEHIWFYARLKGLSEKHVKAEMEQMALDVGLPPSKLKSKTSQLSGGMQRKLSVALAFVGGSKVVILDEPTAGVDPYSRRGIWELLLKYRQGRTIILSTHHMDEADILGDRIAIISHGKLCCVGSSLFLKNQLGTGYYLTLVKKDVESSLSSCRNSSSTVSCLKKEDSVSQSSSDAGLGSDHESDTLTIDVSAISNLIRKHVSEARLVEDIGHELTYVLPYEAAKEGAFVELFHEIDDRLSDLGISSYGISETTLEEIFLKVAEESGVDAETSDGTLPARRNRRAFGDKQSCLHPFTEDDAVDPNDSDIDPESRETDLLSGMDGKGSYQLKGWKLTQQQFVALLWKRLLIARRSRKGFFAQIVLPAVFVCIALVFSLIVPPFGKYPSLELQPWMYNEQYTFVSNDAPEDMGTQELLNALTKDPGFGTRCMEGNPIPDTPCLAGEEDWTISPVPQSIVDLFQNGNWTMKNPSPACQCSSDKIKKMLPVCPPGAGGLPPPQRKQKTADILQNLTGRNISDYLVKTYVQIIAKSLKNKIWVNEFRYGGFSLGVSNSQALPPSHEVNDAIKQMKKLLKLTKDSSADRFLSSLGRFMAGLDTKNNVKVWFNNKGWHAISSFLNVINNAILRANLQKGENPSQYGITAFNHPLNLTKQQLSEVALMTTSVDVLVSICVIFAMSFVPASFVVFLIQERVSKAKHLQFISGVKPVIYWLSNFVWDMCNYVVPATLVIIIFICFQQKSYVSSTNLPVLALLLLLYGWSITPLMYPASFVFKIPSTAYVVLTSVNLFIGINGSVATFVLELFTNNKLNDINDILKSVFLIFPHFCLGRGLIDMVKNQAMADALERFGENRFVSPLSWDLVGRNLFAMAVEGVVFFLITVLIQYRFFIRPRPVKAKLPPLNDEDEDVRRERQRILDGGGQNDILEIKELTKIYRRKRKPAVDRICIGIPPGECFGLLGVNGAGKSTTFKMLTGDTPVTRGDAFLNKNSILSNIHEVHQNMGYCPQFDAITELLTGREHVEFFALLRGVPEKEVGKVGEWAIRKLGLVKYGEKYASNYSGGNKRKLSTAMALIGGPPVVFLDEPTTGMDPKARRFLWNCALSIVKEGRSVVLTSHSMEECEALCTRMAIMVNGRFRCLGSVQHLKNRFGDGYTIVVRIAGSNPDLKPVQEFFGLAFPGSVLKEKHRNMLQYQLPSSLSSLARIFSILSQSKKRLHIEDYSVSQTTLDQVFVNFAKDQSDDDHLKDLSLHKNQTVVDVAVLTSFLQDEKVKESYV
assay summary: cell-based or functional assay
measured parameter: % cholesterol efflux/8 hours, +cAMP (%)

EVREKLEAWFELFREFLERFL [N965-6] : 6.18
EVREKLEAWFELFREFLERFKS [N965-4] : 4.76
ELREKLEAWRELFEEFFARFLS [N965-9] : 2.94
ELREKLEAWFELFREFLERF [SEQ ID NO:2 peptide] : 5.26
EVREKLEAWFELFREFAERFKS [N965-2] : 6.97
EVREKLEAWFELFREFLERF [N965-7] : 4.03

a. EVREKLEAWFELFREFAERFLS [N965-3]
b. EVREKLEAWFELFREFLERFLS [N965-5]
c. EVREKLEAWFEAFREFAERFKS [N965-1]
query: Would you mind ranking these binders by ascending % cholesterol efflux/8 hours, +cAMP? Answer format: list of labels, ordered as asked.
result: a, b, c
